target: 3D7 PfAMA1_104–442 (Plasmodium falciparum); construct: His6 (TEV-cleavable); made in house; test: SPR analysis of peptides binding to immobilized AMA1 (Biacore T200); conditions: SPR alanine scan, 1% DMSO in HBS-EP, 25°C
Sequence (Q7KQK5 entry or part of it): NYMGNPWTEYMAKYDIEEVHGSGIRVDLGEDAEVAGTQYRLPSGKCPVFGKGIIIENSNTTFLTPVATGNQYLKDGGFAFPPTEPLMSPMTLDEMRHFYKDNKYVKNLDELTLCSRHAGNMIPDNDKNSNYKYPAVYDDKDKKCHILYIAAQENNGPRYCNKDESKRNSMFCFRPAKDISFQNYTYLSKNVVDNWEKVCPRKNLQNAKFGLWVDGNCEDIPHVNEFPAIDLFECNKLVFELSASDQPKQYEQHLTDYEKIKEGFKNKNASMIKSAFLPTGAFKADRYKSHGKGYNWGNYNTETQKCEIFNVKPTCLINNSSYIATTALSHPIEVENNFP
OBSERVATION TYPE: fold reduction in affinity for AMA1 relative to R1_5–16

Ac-FLPLFAKFGSRM-NH2 [R1_5–16 S10A] : less than 3 fold
Ac-FLPLFSKFGSRA-NH2 [R1_5–16 M16A] : less than 3 fold
Ac-FLPLFSKFGARM-NH2 [R1_5–16 S14A] : less than 3 fold
